Listed next: entries and their corresponding SI over KDM5B, 5A.
- ASSAYED TARGET: KDM5A (Homo sapiens)
- Sequence (P29375 whole entry): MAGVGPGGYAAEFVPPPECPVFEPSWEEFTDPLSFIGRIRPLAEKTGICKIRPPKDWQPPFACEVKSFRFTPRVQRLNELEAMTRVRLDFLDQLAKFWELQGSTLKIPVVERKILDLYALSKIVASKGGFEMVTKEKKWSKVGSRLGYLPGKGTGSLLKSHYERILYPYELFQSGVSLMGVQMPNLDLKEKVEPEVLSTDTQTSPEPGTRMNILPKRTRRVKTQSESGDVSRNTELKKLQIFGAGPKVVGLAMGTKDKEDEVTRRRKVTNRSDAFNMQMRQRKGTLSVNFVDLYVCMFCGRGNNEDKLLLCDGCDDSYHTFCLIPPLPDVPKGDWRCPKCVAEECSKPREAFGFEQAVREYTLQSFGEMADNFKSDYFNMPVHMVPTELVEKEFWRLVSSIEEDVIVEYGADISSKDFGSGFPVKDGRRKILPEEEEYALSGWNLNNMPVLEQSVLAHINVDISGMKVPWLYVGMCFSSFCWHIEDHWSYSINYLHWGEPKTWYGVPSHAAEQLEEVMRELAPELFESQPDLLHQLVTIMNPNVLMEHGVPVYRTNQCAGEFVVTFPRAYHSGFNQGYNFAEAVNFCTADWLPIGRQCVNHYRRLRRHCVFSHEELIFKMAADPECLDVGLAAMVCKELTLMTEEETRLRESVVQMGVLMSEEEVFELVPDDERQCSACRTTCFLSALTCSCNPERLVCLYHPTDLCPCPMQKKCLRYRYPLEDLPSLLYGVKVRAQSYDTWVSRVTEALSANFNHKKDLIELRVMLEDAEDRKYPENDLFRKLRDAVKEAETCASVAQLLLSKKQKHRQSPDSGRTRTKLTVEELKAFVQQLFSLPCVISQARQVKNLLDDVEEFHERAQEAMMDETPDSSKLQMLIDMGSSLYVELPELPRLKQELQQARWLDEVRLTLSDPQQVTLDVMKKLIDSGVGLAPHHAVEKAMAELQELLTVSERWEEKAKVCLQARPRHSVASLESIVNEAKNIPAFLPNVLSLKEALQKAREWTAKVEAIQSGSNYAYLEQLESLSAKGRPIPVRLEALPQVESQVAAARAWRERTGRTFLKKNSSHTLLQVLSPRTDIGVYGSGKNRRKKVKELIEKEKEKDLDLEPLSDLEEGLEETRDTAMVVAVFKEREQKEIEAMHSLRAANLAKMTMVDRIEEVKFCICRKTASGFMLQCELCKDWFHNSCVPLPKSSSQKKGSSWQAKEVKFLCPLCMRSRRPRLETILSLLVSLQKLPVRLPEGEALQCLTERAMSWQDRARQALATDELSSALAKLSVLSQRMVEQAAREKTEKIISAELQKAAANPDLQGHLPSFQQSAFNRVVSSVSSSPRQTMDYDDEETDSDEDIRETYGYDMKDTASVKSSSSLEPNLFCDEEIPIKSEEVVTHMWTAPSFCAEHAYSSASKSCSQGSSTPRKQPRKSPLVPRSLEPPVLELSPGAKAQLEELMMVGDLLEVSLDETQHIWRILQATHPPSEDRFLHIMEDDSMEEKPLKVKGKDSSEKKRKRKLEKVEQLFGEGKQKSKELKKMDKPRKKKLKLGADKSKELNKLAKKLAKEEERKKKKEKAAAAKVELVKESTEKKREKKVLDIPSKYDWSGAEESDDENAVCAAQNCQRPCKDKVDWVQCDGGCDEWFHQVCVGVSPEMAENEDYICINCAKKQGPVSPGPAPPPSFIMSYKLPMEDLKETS
- ASSAY TEXT: KDM AlphaScreen selectivity panel, KDM5A
- Assay type: biochemical
- MEASUREMENT PARAMETERS: KDM5A IC50/KDM5B IC50
# output: bare number, no unit

Look over these answered cases.
CC(C)c1c(-c2cnn(CCNC(=O)CCl)c2)[nH]c2c(C#N)cnn2c1=O [Compound 7]	1
CN(CCc1cnn(-c2nccc3c(=O)[nH]cnc23)c1)Cc1cccc(NC(=O)CCl)c1 [Compound 5]	3

Input line: Requested field: SI over KDM5B, 5A. Item: C=CC(=O)Nc1cccc(CN(C)CCc2cnn(-c3nccc4c(=O)[nH]cnc34)c2)c1 [Compound 4]
Output line: 1

Input line: Would you mind doing C=CC(=O)N1CCC(n2cc(-c3[nH]c4c(C#N)cnn4c(=O)c3C(C)C)cn2)CC1 [Compound 10] as well?
Output line: 4

Input line: And for CC(C)c1c(-c2cnn(C3CCN(C(=O)CCl)CC3)c2)[nH]c2c(C#N)cnn2c1=O [Compound 11] ?
Output line: 4

Input line: What do you have for C=CC(=O)NCCOc1ccc(-c2[nH]c3c(C#N)cnn3c(=O)c2C(C)C)cc1 [Compound 9] ?
Output line: 1

====

Readings of SI over KDM5B, 5C for the listed compounds
- ASSAYED TARGET: KDM5C (Homo sapiens)
- Sequence (P41229 whole entry): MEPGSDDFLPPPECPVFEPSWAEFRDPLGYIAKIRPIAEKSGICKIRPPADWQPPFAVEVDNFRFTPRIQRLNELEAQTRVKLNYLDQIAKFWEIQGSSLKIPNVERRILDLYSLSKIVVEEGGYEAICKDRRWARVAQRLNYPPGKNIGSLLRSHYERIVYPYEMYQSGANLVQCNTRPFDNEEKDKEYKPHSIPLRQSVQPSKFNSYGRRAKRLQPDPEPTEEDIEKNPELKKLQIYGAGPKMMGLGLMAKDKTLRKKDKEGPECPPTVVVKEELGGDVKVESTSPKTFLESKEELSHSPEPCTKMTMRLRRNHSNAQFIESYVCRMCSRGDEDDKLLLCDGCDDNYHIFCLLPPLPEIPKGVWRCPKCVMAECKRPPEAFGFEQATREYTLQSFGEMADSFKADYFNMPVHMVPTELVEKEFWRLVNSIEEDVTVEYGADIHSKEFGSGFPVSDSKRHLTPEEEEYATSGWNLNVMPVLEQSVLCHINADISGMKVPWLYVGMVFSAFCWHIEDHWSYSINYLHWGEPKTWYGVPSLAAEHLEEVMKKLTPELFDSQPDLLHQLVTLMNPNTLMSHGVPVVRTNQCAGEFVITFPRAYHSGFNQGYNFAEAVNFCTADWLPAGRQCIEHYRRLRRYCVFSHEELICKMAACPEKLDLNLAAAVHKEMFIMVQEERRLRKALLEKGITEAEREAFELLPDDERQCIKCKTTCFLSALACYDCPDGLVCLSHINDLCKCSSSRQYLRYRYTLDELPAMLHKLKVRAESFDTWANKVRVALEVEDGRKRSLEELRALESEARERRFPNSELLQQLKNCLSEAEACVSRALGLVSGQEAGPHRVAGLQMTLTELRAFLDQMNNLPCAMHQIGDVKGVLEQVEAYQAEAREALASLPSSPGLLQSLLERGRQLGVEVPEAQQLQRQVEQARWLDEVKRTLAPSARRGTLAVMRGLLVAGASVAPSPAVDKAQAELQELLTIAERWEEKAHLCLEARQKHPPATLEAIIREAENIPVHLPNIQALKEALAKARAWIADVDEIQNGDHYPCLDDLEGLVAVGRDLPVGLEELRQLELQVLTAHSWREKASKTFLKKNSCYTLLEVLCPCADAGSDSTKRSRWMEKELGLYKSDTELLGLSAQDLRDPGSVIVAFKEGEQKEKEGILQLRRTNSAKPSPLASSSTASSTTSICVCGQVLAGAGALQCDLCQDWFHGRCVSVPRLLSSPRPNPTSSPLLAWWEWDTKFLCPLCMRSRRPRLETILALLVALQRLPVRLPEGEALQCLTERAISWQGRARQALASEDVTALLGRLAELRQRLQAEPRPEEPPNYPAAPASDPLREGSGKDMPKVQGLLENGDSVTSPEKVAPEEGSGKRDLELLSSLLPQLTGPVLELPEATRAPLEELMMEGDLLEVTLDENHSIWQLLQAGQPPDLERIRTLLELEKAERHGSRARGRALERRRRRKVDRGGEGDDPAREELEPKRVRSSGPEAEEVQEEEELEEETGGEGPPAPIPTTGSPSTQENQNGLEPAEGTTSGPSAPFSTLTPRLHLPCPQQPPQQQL
- ASSAY TEXT: KDM AlphaScreen selectivity panel, KDM5C
- Format: biochemical
- MEASUREMENT PARAMETERS: KDM5C IC50/KDM5B IC50
Quick one: just the number, no unit, thanks!

C=CC(=O)NCCOc1ccc(-c2[nH]c3c(C#N)cnn3c(=O)c2C(C)C)cc1	34

Input line: Which SI over KDM5B, 5C value belongs to `CN(CCc1cnn(-c2nccc3c(=O)[nH]cnc23)c1)Cc1cccc(NC(=O)CCl)c1` ?
Output line: 40

Input line: Ok, now `CC(C)c1c(-c2cnn(C3CCN(C(=O)CCl)CC3)c2)[nH]c2c(C#N)cnn2c1=O`
Output line: 115

Input line: What do we get for `C=CC(=O)N1CCC(n2cc(-c3[nH]c4c(C#N)cnn4c(=O)c3C(C)C)cn2)CC1` ?
Output line: 74

Input line: What about `CC(C)c1c(-c2cnn(CCNC(=O)CCl)c2)[nH]c2c(C#N)cnn2c1=O` ?
Output line: 81

====

- ASSAYED TARGET: KDM4A (Homo sapiens, UniProt O75164)
- Sequence (O75164 1-1064): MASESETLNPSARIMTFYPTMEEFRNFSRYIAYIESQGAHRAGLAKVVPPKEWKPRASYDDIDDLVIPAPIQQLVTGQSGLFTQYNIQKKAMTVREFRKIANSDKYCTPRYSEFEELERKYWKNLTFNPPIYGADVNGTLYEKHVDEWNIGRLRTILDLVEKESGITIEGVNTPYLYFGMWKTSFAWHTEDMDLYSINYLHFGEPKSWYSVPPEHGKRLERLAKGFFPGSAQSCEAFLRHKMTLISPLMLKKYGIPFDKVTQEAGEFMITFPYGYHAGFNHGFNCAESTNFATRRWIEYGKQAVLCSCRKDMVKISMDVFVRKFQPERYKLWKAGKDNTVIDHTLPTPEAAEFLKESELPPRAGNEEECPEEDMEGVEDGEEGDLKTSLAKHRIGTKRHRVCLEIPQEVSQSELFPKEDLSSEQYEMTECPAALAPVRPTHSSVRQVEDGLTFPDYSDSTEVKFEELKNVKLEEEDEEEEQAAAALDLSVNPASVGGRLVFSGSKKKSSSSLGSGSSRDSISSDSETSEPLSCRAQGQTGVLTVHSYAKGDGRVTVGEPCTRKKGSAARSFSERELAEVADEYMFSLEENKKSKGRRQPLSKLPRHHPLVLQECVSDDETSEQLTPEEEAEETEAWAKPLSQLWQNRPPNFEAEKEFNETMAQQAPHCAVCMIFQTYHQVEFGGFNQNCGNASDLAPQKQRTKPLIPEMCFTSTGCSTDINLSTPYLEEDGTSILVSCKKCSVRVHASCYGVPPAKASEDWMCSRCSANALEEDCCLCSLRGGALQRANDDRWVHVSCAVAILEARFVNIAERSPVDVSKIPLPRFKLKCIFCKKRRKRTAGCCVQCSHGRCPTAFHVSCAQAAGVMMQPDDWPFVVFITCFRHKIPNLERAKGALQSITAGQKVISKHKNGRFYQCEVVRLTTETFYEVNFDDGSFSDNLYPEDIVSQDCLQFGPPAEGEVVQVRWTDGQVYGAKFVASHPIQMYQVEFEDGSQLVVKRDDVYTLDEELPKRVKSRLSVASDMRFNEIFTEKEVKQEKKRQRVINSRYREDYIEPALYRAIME
OBSERVABLE: pIC50
// pIC50: -log10(molar conc.)

CC(C)c1c(-c2cnn(C3CCN(C(=O)CCl)CC3)c2)[nH]c2c(C#N)cnn2c1=O	5.37

Input line: For the record `CC(C)c1c(-c2cnn(CCNC(=O)CCl)c2)[nH]c2c(C#N)cnn2c1=O` , what value of pIC50 is listed for KDM4A (Homo sapiens, UniProt O75164)?
Output line: 5.34
